Assay: Trough plasma concentrations of troglitazone
Type: in vivo, patients
Settings: human, plasma, po; Week 12; 600 mg QD, alone or + glyburide; read-out: Mean (% RSD) Trough Plasma Concentration of Troglitazone
reported_property: concentration at 2016 h (ng/mL)
Express your answer in ng/mL, writing the number without its unit.

Fill in the blank: the reported concentration at 2016 h of Cc1c(C)c2c(c(C)c1O)CCC(C)(COc1ccc(CC3SC(=O)NC3=O)cc1)O2 (stereo not shown) [Troglitazone] is ____.
285
